meta.source: the supplement of paper PMC6555819

System: PPARg:RXRa IVT, anti-PPARg (NR concentration 270 nM, RXRa partner concentration 90 nM)
experiment summary: PBM binding z-score (relative to random genomic background probes); higher = stronger binding; sequences stand for … in GC…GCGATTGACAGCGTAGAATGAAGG
Param threshold (1) applies to PBM binding z-score; output criterion met when value >= threshold, criterion not met when value < threshold.

INSERT INTO measurements (macromolecule_sequence, classification) VALUES
  ('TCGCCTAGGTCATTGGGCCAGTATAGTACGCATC', 'criterion met'),
  ('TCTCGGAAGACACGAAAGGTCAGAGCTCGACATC', 'criterion met'),
  ('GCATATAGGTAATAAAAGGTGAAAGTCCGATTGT', 'criterion met');

Asked: Determine whether this sequence has PBM binding z-score no lower than 1: `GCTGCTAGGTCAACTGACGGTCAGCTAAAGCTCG`
Given back: criterion met

Asked: Identify whether the reported PBM binding z-score of the following sequence is 1 or greater: `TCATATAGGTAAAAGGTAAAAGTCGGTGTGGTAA`
Given back: criterion met

Asked: Could you please find out whether `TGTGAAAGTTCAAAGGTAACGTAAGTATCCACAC` has PBM binding z-score that meets 1 or exceeds it?
Given back: criterion met
